The origin of these recorded values is ChEMBL document CHEMBL4257512.

Listed molecules paired with reported selectivity ratio
# Method notes: Selectivity index, ratio of CC50 for African green monkey Vero cells to IC50 for chloroquine-resistant Plasmodium falciparum K1 asynchronous cultures infected in human erythrocytes
# Assay type: toxicity, cell-based
# Study conditions: read-out: Ratio CC50/IC50
The reply should be a number, written without any unit.

In the examples that follow, each entry is paired with its recorded selectivity ratio.
CC1(C)O[C@H]2O[C@H]([C@H](CCO)n3cnc4c(N)ncnc43)[C@H](Oc3ccccc3[N+](=O)[O-])[C@H]2O1	33.3
CC1(C)O[C@H]2O[C@H]([C@@H](CCO)n3cnc4c(N)ncnc43)[C@H](Oc3ccccc3[N+](=O)[O-])[C@H]2O1	12.7

Next, consider the following molecule.
Item under review: "CCOC(=O)C[C@H]([C@H]1O[C@@H]2OC(C)(C)O[C@@H]2[C@H]1OCc1ccccc1)n1cnc2c(NCc3ccccc3)ncnc21" . Reported selectivity ratio?
23.5
